biological target: AgNbp2; experiment: SPOT peptide array binding signal intensity (averaged, normalized) (arbitrary units (background-subtracted, floor 0; scale differs between SH3 domains)); higher = stronger binding of the SH3 domain to the peptide
value_type: SPOT peptide array binding signal intensity

Find the recorded SPOT peptide array binding signal intensity belonging to TPEIPPPLPPKIMVH and report it.
≤ 0

Item: GKLKHIPRRPYEIER
≤ 0

Item: QPWTDQFEKLEKEVS
≤ 0
